Each entry below carries its recorded pIC50.
target: UniProt Q9NYK1; assay: TLR7 inhibition reporter assay (HEK-Blue, SEAP); settings: HEK-Blue cells overexpressing human TLR7, gardiquimod 7.5 μM stimulation
Sequence (Q9NYK1 27-1049): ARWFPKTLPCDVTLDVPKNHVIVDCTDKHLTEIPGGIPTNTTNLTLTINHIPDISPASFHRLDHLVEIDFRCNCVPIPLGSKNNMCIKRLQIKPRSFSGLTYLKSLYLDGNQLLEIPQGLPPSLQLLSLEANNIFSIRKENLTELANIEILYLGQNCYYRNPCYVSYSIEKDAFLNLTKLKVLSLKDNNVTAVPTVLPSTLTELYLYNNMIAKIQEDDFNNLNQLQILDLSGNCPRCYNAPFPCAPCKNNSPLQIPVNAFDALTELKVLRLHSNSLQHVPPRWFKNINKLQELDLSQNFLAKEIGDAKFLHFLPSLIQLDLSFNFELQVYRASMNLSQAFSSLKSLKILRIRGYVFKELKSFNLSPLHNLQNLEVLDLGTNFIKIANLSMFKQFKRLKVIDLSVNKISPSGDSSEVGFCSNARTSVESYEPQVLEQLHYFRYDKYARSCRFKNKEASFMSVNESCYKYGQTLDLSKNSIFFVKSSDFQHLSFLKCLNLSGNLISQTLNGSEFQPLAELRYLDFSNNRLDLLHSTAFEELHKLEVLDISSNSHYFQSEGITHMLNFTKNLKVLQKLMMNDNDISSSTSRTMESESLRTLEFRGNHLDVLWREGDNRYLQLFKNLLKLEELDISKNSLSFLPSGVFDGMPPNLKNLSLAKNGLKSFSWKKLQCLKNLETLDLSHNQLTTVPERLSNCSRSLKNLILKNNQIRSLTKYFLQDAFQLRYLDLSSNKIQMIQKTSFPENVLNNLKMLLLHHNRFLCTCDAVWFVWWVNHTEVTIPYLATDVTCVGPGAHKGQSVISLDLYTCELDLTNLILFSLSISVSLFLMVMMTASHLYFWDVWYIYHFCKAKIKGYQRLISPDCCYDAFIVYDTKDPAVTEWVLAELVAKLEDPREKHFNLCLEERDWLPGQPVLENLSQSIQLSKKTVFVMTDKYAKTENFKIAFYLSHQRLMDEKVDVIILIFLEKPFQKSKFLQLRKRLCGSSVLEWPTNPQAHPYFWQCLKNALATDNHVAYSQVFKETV
pIC50 field: float, defined as -log10 of concentration (mol/L).

CCc1c(-c2ccc(OC)c(OC)c2)[nH]c2ccc(-c3noc(CCNC)n3)cc12	6.27
Cc1cc(-c2[nH]c3ccc(-c4nc(C(=O)NCCCCN5CCCC5)co4)cc3c2C(C)C)cc(C)n1	8.07
CC(C)c1c(-c2ccnc3[nH]ncc23)[nH]c2ccc(-c3noc([C@@H]4CCCNC4)n3)cc12	6.81
COc1ccc(-c2[nH]c3ccc(-c4ccc(CCCN5CCOCC5)cc4)cc3c2C(C)C)cc1OC	6.25
COc1ccc(-c2[nH]c3ccc(-c4nnc([C@H]5CCCNC5)o4)cc3c2CC(F)(F)F)cc1OC	7.51
CC(C)c1c(-c2ccnc3[nH]ncc23)[nH]c2ccc(-c3nnc(C4CCCN(C)C4)o3)cc12 (stereo not shown) [Example 167]	7.18
Cc1cc(-c2[nH]c3ccc(-c4cn5cc(C)nc5cc4F)cc3c2C(C)C)cc(C)n1	8.43
Cc1cc(-c2[nH]c3ccc(-c4nnc([C@H]5CSCN5)o4)cc3c2C(C)C)ccn1	6.22

Lookup: Which measured pIC50 belongs to COc1ccc(-c2[nH]c3ccc(-c4nnc(C(=O)N5CCCN(C)CC5)o4)cc3c2C(C)C)cc1OC , tested on UniProt Q9NYK1?
Found: 7.07

Lookup: Which measured pIC50 belongs to COc1ccc(-c2[nH]c3ccc(-c4ccnc(C(=O)N[C@H]5CC[C@H](C(C)(C)O)CC5)c4)cc3c2C(C)C)cc1OC , tested on UniProt Q9NYK1?
Found: 5.91

Lookup: Which measured pIC50 belongs to COc1ccc(-c2[nH]c3ccc(-c4cccc(N5CCN(C)CC5)c4)cc3c2C(C)C)cc1OC , tested on UniProt Q9NYK1?
Found: 5.68

Lookup: Which measured pIC50 belongs to Cc1cc(-c2[nH]c3ccc(-c4ccc(N5CCCC5)nc4)cc3c2C(C)C)cc(C)n1 , tested on UniProt Q9NYK1?
Found: 7.39

Lookup: Which measured pIC50 belongs to Cc1cc(-c2[nH]c3ccc(-c4nnc([C@@H]5CCCNC5)o4)cc3c2C(C)C)cc(C)n1 , tested on UniProt Q9NYK1?
Found: 7.96

====

biological target: UniProt:Q9NR96; assay: TLR9 inhibition reporter assay (HEK-Blue, SEAP); details: HEK-Blue cells overexpressing human TLR9, ODN2006 5 nM stimulation
Each entry below carries its recorded IC50.
# unit: nM | format: bare number

The following molecules have reported results that may help.
COc1ccc(-c2[nH]c3ccc(-c4cnc(N5CCN(Cc6cccn6C)CC5)nc4)cc3c2C(C)C)cc1OC	11900
COc1ccc(-c2[nH]c3ccc(-c4ccc(OC5CCN(C(C)C)CC5)cc4)cc3c2C(C)C)cc1OC	2360
Cc1cc(-c2[nH]c3ccc(-c4nnc(N)o4)cc3c2C(C)C)cc(C)n1	6360
Cc1cc(-c2[nH]c3ccc(-c4nnc(C(=O)NC5CCN(C(C)C)CC5)s4)cc3c2C(C)C)ccn1	1380
CCN(CC)C(=O)C1CCCN(C(=O)c2nnc(-c3ccc4[nH]c(-c5ccc(OC)c(OC)c5)c(C(C)C)c4c3)o2)C1 (stereo not shown)	9640
CCc1c(-c2ccc(OC)c(OC)c2)[nH]c2ccc(-c3nnc(C(=O)N4CC5CNCC5C4)o3)cc12 (stereo not shown)	325

Lookup: Which IC50 is reported for this molecule? Cc1cc(-c2[nH]c3ccc(-c4nc(C(=O)NCCCN5CCN(C)CC5)co4)cc3c2C(C)C)cc(C)n1
Found: 202

Lookup: Which IC50 is reported for this molecule? CCc1c(-c2ccc(OC)c(OC)c2)[nH]c2ccc(-c3noc(C4CCNCC4)n3)cc12
Found: 2180

Lookup: Which IC50 is reported for this molecule? Cc1cc(-c2[nH]c3ccc(-c4ccc(N5CCC(N(C)C)CC5)nc4)cc3c2C(C)C)cc(C)n1
Found: 220

Lookup: Which IC50 is reported for this molecule? COc1ccc(-c2[nH]c3ccc(-c4ccc(C5=CCN(C)CC5)cc4)cc3c2C)cc1OC
Found: 2410

Lookup: Which IC50 is reported for this molecule? Cc1cc(-c2[nH]c3ccc(-c4cc5c(s4)CN(C(C)C)CC5)cc3c2C(C)C)ccn1
Found: 652

Lookup: Which IC50 is reported for this molecule? Cc1cc(-c2[nH]c3ccc(-c4ccnc(C5CCN(C(C)C)CC5)c4)cc3c2C(C)C)ccn1
Found: 380

Lookup: Which IC50 is reported for this molecule? CNC(=O)CN1CCC(c2nnc(-c3ccc4[nH]c(-c5ccc(OC)c(OC)c5)c(C(C)C)c4c3)[nH]2)CC1
Found: 7000

Lookup: Which IC50 is reported for this molecule? CCc1c(-c2ccc(OC)c(OC)c2)[nH]c2ccc(-c3noc(C4CCNC4)n3)cc12 (stereo not shown)
Found: 1690

Lookup: Which IC50 is reported for this molecule? Cc1cc(-c2[nH]c3ccc(-c4ccc(N5CCN(C)CC5)nc4)cc3c2C(C)C)ccn1
Found: 304

Lookup: Which IC50 is reported for this molecule? CCc1c(-c2ccnc(C)c2)[nH]c2ccc(-c3noc([C@H]4CCNC4)n3)cc12
Found: 15900

Lookup: Which IC50 is reported for this molecule? Cc1cc(-c2[nH]c3ccc(-c4nnc(C5CCCN(C(C)C)C5)[nH]4)cc3c2C(C)C)cc(C)n1 (stereo not shown) [Example 340]
Found: 262

Lookup: Which IC50 is reported for this molecule? Cc1cc(-c2[nH]c3ccc(-c4cc5c(s4)CN(CC(=O)N(C)C)CC5)cc3c2C(C)C)ccn1
Found: 3350

====

Each entry below carries its recorded pIC50.
Target: UniProt:Q9NR96
Assay: TLR9 inhibition reporter assay (HEK-Blue, SEAP)
Details: HEK-Blue cells overexpressing human TLR9, ODN2006 5 nM stimulation
Description: TLR7/8/9 Inhibition Reporter Assays HEK-Blue™-cells (Invivogen) overexpressing human TLR7, TLR8 or TLR9 receptors were used for screening inhibitors of these receptors using an inducible SEAP (secreted embryonic alkaline phosphatase) reporter gene under the control of the IFN-β minimal promoter fused to five NF-κc Band AP-1-binding sites. […]
pIC50 field: float, defined as -log10 of concentration (mol/L).

The following compounds have reported results that may help.
Cc1cc(-c2[nH]c3ccc(-c4cc5c(s4)CN(Cc4c[nH]c(C)n4)CC5)cc3c2C(C)C)cc(C)n1	6.84
Cc1cn2cc(-c3[nH]c4ccc(-c5ccc(N6CCNCC6)nc5)cc4c3C(C)C)ccc2n1	6.17
COc1ccc(-c2[nH]c3ccc(-c4ccnc(C(=O)N5CCCN(C)CC5)c4)cc3c2C(C)C)cc1OC	6.17
Cc1cc(-c2[nH]c3ccc(-c4ccc(N)nc4)cc3c2C(C)C)cc(C)n1	6.18

Please find the next compound below.
Lookup: Which pIC50 is reported for this compound? Cc1cc(-c2[nH]c3ccc(-c4cc5c(s4)CN(C)CC5)cc3c2C(C)C)cc(C)n1
Found: 6.31

====

molecular target: human TLR9 (Homo sapiens (Human)); assay: TLR9 inhibition reporter assay (HEK-Blue, SEAP); conditions: HEK-Blue cells overexpressing human TLR9, ODN2006 5 nM stimulation
pIC50: −log10 of the molar value.
measure: pIC50

Cc1cc(-c2[nH]c3ccc(-c4nnc([C@@H]5Cc6ccccc6CN5)o4)cc3c2C(C)C)ccn1	< 4.30

Lookup: Which measured pIC50 belongs to Cc1cc(-c2[nH]c3ccc(-c4nc5c(s4)CCNC5)cc3c2C(C)C)cc(C)n1 , tested on human TLR9 (Homo sapiens (Human))?
Found: 6.19

Lookup: Which measured pIC50 belongs to COc1ccc(-c2[nH]c3ccc(-c4ccnc(N5CCN(CCC(F)(F)F)CC5)c4)cc3c2C(C)C)cc1OC , tested on human TLR9 (Homo sapiens (Human))?
Found: < 4.30

Lookup: Which measured pIC50 belongs to CC(=O)N1CCc2nc(-c3ccc4[nH]c(-c5cc(C)nc(C)c5)c(C(C)C)c4c3)sc2C1 , tested on human TLR9 (Homo sapiens (Human))?
Found: < 4.30

====

molecular target: human TLR9 (Homo sapiens (Human), UniProt Q9NR96); assay: TLR9 inhibition reporter assay (HEK-Blue, SEAP); settings: HEK-Blue cells overexpressing human TLR9, ODN2006 5 nM stimulation
Sequence (Q9NR96 26-1032): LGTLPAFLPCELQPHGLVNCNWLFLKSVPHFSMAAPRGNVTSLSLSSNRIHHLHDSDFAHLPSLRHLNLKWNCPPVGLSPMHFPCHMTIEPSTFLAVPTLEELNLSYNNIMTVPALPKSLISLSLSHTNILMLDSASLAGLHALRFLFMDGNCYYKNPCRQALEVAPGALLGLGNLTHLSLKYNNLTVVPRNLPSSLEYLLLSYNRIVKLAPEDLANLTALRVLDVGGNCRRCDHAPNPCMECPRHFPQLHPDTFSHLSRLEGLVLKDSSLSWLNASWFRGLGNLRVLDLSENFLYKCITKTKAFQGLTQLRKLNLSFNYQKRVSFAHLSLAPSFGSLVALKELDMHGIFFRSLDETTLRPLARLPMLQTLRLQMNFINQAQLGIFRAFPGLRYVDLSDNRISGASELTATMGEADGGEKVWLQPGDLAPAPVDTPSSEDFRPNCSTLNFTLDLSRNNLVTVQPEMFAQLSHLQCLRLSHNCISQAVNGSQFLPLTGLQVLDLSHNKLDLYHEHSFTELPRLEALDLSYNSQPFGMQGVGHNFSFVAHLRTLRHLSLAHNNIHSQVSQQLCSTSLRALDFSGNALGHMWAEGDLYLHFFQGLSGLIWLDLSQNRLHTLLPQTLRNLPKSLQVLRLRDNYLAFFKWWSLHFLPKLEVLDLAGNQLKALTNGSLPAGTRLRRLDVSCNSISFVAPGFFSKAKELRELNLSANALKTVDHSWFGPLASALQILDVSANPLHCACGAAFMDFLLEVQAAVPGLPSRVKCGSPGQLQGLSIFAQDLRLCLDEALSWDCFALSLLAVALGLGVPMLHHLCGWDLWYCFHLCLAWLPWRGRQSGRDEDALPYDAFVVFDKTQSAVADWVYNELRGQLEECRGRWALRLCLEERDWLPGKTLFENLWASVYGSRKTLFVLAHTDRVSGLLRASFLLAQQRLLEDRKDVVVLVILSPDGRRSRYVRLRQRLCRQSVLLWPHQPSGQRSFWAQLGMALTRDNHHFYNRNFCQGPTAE
// returns class 0 unless IC50 is strictly below 3 µM, in which case class 1

Cc1cc(-c2[nH]c3ccc(-c4ccc(NC(C)C)nc4)cc3c2C(C)C)cc(C)n1	class 0

Lookup: Decide: IC50 of Cc1cc(-c2[nH]c3ccc(-c4nnc(C[C@@H]5CCCN5)o4)cc3c2C(C)C)ccn1 strictly below 3 µM?
Found: class 0

Lookup: Decide: IC50 of Cc1cc(-c2[nH]c3ccc(-c4ccc(N5CC(C)OC(C)C5)nc4)cc3c2C(C)C)cc(C)n1 (stereo not drawn) strictly below 3 µM?
Found: class 0

Lookup: Decide: IC50 of Cc1cc(-c2[nH]c3ccc(-c4nnc(N)o4)cc3c2C(C)C)ccn1 strictly below 3 µM?
Found: class 0

Lookup: Decide: IC50 of Cc1cc(-c2[nH]c3ccc(-c4nc(C(=O)NC5CCN(C(C)C)CC5)c(C)o4)cc3c2C(C)C)ccn1 strictly below 3 µM?
Found: class 0

Lookup: Decide: IC50 of CC(C)c1c(-c2ccnc3[nH]ncc23)[nH]c2ccc(-c3nnc(C4CCCN(C)C4)o3)cc12 (stereo not drawn) [Example 162] strictly below 3 µM?
Found: class 1
